Biological target: human Nav1.6 (hNav1.6) (Homo sapiens, UniProt Q9UQD0)
Construct: expressed in transfected cells; host or cells: HEK-293 (G418 selection)
Sequence (Q9UQD0 whole entry): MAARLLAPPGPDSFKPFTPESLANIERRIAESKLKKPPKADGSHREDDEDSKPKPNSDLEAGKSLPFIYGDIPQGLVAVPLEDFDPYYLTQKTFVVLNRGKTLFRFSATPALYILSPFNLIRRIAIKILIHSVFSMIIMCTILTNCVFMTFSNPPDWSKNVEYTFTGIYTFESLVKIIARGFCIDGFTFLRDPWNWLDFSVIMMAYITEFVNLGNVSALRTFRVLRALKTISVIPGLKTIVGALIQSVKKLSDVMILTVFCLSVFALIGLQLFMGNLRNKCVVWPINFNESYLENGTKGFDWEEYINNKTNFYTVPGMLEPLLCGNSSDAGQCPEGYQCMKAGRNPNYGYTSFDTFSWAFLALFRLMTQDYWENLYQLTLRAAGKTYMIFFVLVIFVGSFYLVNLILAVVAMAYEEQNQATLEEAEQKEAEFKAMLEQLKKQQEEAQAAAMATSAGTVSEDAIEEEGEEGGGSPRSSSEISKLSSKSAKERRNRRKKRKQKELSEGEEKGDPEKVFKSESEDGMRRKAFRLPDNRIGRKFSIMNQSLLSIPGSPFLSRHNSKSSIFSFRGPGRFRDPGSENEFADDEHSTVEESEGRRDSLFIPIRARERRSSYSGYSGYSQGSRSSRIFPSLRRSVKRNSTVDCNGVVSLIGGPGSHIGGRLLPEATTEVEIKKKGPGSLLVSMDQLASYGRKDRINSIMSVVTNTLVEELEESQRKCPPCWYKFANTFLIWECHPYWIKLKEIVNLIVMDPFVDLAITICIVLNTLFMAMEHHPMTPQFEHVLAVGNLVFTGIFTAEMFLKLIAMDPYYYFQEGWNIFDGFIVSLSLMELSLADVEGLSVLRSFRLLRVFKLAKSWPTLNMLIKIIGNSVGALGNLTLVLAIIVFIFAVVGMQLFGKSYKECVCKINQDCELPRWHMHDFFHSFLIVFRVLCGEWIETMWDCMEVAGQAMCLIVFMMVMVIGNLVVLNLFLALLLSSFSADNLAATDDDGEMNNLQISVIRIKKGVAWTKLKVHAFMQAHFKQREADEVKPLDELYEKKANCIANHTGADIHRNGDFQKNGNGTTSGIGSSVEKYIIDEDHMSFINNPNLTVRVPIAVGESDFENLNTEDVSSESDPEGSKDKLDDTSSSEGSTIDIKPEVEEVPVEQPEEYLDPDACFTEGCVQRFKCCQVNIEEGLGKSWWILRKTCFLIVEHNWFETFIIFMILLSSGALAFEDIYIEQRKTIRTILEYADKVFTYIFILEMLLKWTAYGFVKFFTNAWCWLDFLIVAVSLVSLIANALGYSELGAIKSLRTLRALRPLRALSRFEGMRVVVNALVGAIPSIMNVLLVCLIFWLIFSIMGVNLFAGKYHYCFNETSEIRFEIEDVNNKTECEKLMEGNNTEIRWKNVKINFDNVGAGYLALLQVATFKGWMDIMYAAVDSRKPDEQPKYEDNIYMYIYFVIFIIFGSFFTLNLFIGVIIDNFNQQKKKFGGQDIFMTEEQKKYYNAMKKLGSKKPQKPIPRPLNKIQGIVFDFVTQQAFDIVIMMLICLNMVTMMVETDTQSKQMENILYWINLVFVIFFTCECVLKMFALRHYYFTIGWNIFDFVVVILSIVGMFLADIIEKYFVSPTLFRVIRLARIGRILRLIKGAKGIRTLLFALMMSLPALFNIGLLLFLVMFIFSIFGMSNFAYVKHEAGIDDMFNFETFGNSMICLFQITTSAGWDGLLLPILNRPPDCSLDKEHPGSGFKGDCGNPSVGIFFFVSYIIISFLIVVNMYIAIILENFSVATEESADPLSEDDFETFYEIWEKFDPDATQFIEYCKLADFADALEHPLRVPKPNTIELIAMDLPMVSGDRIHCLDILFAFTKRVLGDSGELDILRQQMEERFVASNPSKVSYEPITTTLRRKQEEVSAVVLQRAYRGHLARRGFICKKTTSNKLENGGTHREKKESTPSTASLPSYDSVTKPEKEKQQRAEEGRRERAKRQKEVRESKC
Experiment: Modulation of late sodium current (INaL), PatchXpress electrophysiology
Type: cell-based
Conditions: HEK293; 1 μM compound; HEK-293 cells expressing recombinant human Nav channel; late current evoked by 300 nM ATX-II; steady-state inhibition; read-out: INaL v1.6 (1 μM, % Inhibition)
Procedure: Functional characterization of exemplary compounds to modulate INaL expressed by the Nav1.6 voltage-gated sodium channel was accomplished using the PatchXpress™ high throughput electrophysiology platform (Molecular Devices, Sunnyvale, Calif.). […] INaL amplitude and stability were determined by analyzing the mean current amplitude over the final 20 ms of the test pulse. […]
result.type: inhibition at 1 µM

compound	result.type	observed.value
O=c1oc2ncc(-c3ccc(OC(F)(F)F)cc3)cc2n1Cc1ncccn1 [Compound 49]	inhibition at 1 µM	< 30%
CCn1c(=O)oc2ccc(-c3cnc(OCC(F)(F)F)c(F)c3)cc21 [Compound 96]	inhibition at 1 µM	30 to 70%
O=c1oc2ccc(-c3ccc(OC(F)(F)F)cc3)cc2n1C[C@@H]1CCCCO1 (single isomer, unassigned) [Compound 58]	inhibition at 1 µM	> 70%
O=c1oc2ccc(-c3ccc(OC(F)(F)F)cc3)cc2n1CCc1cnccn1 [Compound 120]	inhibition at 1 µM	> 70%
O=c1oc2ccc(-c3ccc(OC(F)(F)F)cc3)nc2n1CC1CCOCC1 [Compound 101]	inhibition at 1 µM	> 70%

Please give the measured inhibition at 1 µM for this compound: Cc1oncc1Cn1c(=O)oc2ccc(-c3ccc(OC(F)(F)F)cc3)nc21 [Compound 154]
> 70%

# repeat for O=c1oc2ccc(-c3ccc(OC(F)(F)F)cc3)nc2n1C[C@H]1CCCO1 (single isomer, unassigned) [Compound 65]
30 to 70%

# repeat for CS(=O)(=O)N1CCC[C@@H]1Cn1c(=O)oc2ccc(-c3ccc(OC(F)(F)F)cc3)cc21 [Compound 118]
< 30%

# repeat for O=c1oc2ncc(-c3ccc(OC(F)(F)F)cc3)cc2n1Cc1ccccc1 [Compound 34]
30 to 70%

# repeat for O=c1oc2ccc(-c3ccc(OC(F)(F)F)cc3)nc2n1C[C@@H]1CC1(F)F (single isomer, unassigned) [Compound 107]
30 to 70%

# repeat for CC(=O)N1CCC[C@@H]1Cn1c(=O)oc2ccc(-c3ccc(OC(F)(F)F)cc3)cc21 [Compound 109]
> 70%

# repeat for C[C@@H](O)CCn1c(=O)oc2ccc(-c3ccc(OC(F)(F)F)cc3)nc21 (single isomer, unassigned) [Compound 100]
> 70%
